- Target System: human FAP-α (Homo sapiens (Human), UniProt Q12884)
- Sequence (Q12884 whole entry): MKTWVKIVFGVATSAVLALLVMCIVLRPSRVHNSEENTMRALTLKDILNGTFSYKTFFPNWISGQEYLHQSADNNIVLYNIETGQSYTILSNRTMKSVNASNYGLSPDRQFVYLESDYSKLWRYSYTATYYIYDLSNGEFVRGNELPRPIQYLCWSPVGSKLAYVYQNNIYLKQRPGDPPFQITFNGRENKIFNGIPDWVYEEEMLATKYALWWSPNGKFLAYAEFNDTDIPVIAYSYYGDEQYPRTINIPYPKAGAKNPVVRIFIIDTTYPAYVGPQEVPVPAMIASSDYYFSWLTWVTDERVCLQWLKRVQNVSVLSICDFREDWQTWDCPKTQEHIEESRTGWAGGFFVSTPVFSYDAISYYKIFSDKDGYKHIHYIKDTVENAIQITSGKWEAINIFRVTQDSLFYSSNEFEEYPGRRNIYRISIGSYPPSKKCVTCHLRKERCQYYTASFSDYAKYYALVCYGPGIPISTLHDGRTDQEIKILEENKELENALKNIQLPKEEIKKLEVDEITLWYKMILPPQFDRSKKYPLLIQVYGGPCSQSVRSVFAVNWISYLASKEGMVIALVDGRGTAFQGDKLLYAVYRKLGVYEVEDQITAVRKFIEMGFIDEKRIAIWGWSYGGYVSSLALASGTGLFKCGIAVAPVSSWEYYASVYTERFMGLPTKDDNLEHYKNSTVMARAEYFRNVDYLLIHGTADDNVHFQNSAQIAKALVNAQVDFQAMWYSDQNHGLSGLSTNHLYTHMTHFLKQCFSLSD
- Measurement Protocol: Competitive binding of radiolabeled compound to HT-1080-FAP cells against unlabeled compound
- Test Settings: F-18-FAPI derivatives; table title says EC50, head says IC50; read-out: IC50
Assay Endpoint: IC50

{"columns": ["Compound Smiles", "Test Result"],
 "data": [
  ["N#C[C@@H]1CCCN1C(=O)CNC(=O)c1ccnc2ccc(OCCCN3CCN(C(=O)CN4CCN(CC(=O)O)CCN(CC(=O)O)CC4)CC3)cc12", "9.2 nM"]
]}

# lookup: IC50 of N#C[C@@H]1CC(F)(F)CN1C(=O)CNC(=O)c1ccnc2ccc(OCCCN3CCN(C(=O)[C@H](CC(C(=O)O)C(=O)O)NC(=O)CN4CCN(CC(=O)O)CCN(CC(=O)O)CC4)CC3)cc12
2.9 nM

----------
- Test system: HT-1080-FAP tumor xenografts
- Measurement Protocol: Dynamic small-animal PET, two-tissue compartment model, HT-1080-FAP xenografts
- Assay type: in vivo, mouse
- Test Settings: 68Ga-FAPI-02, HT-1080-FAP, + comp.
- Protocol: For in vivo experiments, 8 week old BALB/c nu/nu mice (Charles River) were subcutaneously inoculated into the right trunk with 5×10^6 with HT-1080-FAP, Capan-2 or SK-LMS-1 cells, respectively. […] Quantification was done using a ROI technique and expressed as SUV mean. […] The distributed radioactivity was measured in all dissected organs and in blood using a γ-counter (Cobra Autogamma, Packard). The values are expressed as percentage of injected dose per gram of tissue (% ID/g). […]
Assay Endpoint: k4

# lookup: k4 of N#C[C@@H]1CCCN1C(=O)CNC(=O)c1ccnc2ccc(OCCCN3CCN(C(=O)CN4CCN(CC(=O)O)CCN(CC(=O)O)CCN(CC(=O)O)CC4)CC3)cc12 [FAPI-02]
0.07 min⁻¹

----------
- Target System: human FAP-α (Homo sapiens (Human))
- Measurement Protocol: Competitive binding of radiolabeled compound to HT-1080-FAP cells against unlabeled compound
- Test Settings: Lu-177-labeled compound, unlabeled compound as competitor, HT-1080-FAP cells; read-out: IC50
pIC50: −log10 of the molar value.
# pIC50 >= 8 gives true, anything below gives false

{"columns": ["Molecule", "Discrete Label"],
 "data": [
  ["N#C[C@@H]1CC(F)(F)CN1C(=O)CNC(=O)c1ccnc2ccc(OCCCN3CCN(CCCN4CCN(CC(=O)O)CCN(CC(=O)O)CCN(CC(=O)O)CC4)CC3)cc12 [FAPI-48]", "false"],
  ["N#C[C@@H]1CC(F)(F)CN1C(=O)CNC(=O)c1ccnc2ccc(OCCCC3CCN(C(=O)CN4CCN(CC(=O)O)CCN(CC(=O)O)CCN(CC(=O)O)CC4)CC3)cc12 [FAPI-13]", "true"],
  ["N#C[C@@H]1CC(F)(F)CN1C(=O)CNC(=O)c1ccnc2ccc(OCCCCN3CCN(C(=O)CN4CCN(CC(=O)O)CCN(CC(=O)O)CCN(CC(=O)O)CC4)CC3)cc12 [FAPI-05]", "false"]
]}

Let us examine a further case.
Textbook exercise: given the entry N#C[C@@H]1CC(F)(F)CN1C(=O)CNC(=O)c1ccnc2ccc(OCCCN3CCN(CCN4CCN(CC(=O)O)CCN(CC(=O)O)CCN(CC(=O)O)CC4)CC3)cc12 [FAPI-47] , state whether its pIC50 is greater than or equal to 8.
false

----------
- Measurement Protocol: Blood pool clearance from SUVmean of the heart
- Assay type: in vivo
- Test Settings: rate determining half-life, two phase exponential decay of heart SUVmean 0.375-60 min
Collected Blood pool-clearence (T1/2 [min]) values appear next to each entry.
Give just the number in min; leave the unit off.

{"columns": ["Compound Smiles", "Blood pool-clearence (T1/2 [min]) / min"],
 "data": [
  ["N#C[C@@H]1CC(F)(F)CN1C(=O)CNC(=O)c1ccnc2ccc(OCCCC3CCN(C(=O)CN4CCN(CC(=O)O)CCN(CC(=O)O)CCN(CC(=O)O)CC4)CC3)cc12", 5.5]
]}

# lookup: Blood pool-clearence (T1/2 [min]) of CN(CCCN1CCN(C(=O)CN2CCN(CC(=O)O)CCN(CC(=O)O)CCN(CC(=O)O)CC2)CC1)c1ccc2nccc(C(=O)NCC(=O)N3CC(F)(F)C[C@H]3C#N)c2c1
5.3

Item: N#C[C@@H]1CCCN1C(=O)CNC(=O)c1ccnc2ccc(OCCCN3CCN(C(=O)CN4CCN(CC(=O)O)CCN(CC(=O)O)CC4)CC3)cc12
2.4

Item: N#C[C@@H]1CC(F)(F)CN1C(=O)CNC(=O)c1ccnc2ccc(OCCCN3CCN(C(=O)CN4CCN(CC(=O)O)CCN(CC(=O)O)CCN(CC(=O)O)CC4)CC3)cc12
7.1

----------
- Target System: human FAP-α (Homo sapiens (Human), UniProt Q12884)
- Measurement Protocol: Competitive binding of radiolabeled compound to HT-1080-FAP cells against unlabeled compound
- Test Settings: Lu-177-labeled compound, unlabeled compound as competitor, HT-1080-FAP cells; read-out: IC50
Assay Endpoint: pIC50
Kindly note that pIC50 refers to -log10 of the concentration in mol/L and answer with the value alone.

Some solved entries appear below for comparison.
{"columns": ["Compound", "Target System", "pIC50"],
 "data": [
  ["CN(CCCN1CCN(C(=O)CN2CCN(CC(=O)O)CCN(CC(=O)O)CCN(CC(=O)O)CC2)CC1)c1ccc2nccc(C(=O)NCC(=O)N3CC(F)(F)C[C@H]3C#N)c2c1 [FAPI-46]", "human FAP-α (Homo sapiens (Human), UniProt Q12884)", 7.87],
  ["N#C[C@@H]1CC(F)(F)CN1C(=O)CNC(=O)c1ccnc2ccc(OCCOCCOCCN3CCN(C(=O)CN4CCN(CC(=O)O)CCN(CC(=O)O)CCN(CC(=O)O)CC4)CC3)cc12 [FAPI-15]", "human FAP-α (Homo sapiens (Human), UniProt Q12884)", 8.04],
  ["N#C[C@@H]1CC(F)(F)CN1C(=O)CNC(=O)c1ccnc2ccc(CCCCN3CCN(C(=O)CN4CCN(CC(=O)O)CCN(CC(=O)O)CCN(CC(=O)O)CC4)CC3)cc12 [FAPI-39]", "human FAP-α (Homo sapiens (Human), UniProt Q12884)", 7.95],
  ["N#C[C@@H]1CC(F)(F)CN1C(=O)CNC(=O)c1ccnc2ccc(NCCCN3CCN(C(=O)CN4CCN(CC(=O)O)CCN(CC(=O)O)CCN(CC(=O)O)CC4)CC3)cc12 [FAPI-41]", "human FAP-α (Homo sapiens (Human), UniProt Q12884)", 8.08],
  ["N#C[C@@H]1CC(F)(F)CN1C(=O)CNC(=O)c1ccnc2ccc(SCCCN3CCN(C(=O)CN4CCN(CC(=O)O)CCN(CC(=O)O)CCN(CC(=O)O)CC4)CC3)cc12 [FAPI-40]", "human FAP-α (Homo sapiens (Human), UniProt Q12884)", 7.90]
]}

Please look at the following compound next.
Return pIC50 measured with human FAP-α (Homo sapiens (Human), UniProt Q12884) given this compound: N#C[C@@H]1CC(F)(F)CN1C(=O)CNC(=O)c1ccnc2ccc(OCCCN3C[C@@H]4C[C@H]3CN4C(=O)CN3CCN(CC(=O)O)CCN(CC(=O)O)CCN(CC(=O)O)CC3)cc12 [FAPI-20]
8.14
